Target: ALKR (Aplysia leucokinin-like peptide receptor) (Aplysia californica)
Sequence (A0A977Q7Q2 1-429): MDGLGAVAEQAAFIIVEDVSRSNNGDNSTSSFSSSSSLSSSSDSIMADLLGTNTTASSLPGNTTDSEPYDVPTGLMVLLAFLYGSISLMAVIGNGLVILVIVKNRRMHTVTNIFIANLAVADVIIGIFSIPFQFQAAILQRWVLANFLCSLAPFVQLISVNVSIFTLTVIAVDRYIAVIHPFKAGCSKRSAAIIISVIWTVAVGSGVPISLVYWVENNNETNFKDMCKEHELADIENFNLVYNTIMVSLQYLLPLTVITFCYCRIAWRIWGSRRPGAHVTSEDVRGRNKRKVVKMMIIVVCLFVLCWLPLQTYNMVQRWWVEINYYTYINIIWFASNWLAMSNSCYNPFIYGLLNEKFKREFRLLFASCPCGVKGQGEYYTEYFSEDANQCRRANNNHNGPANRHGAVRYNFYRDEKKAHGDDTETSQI
Assay: IP1 accumulation assay, CHO-K1 cells transfected with ALKR
Format: cell-based
Settings: CHO-K1 transiently transfected with ALKR, no promiscuous Gαq; IP1 accumulation; average, rounded to two significant figures; ALK1 n = 13, ALK2 n = 4, others n = 3; read-out: EC50 on ALKR
Source text: To examine whether the native ALKs could activate the putative ALKR, we expressed the ALKR in Chinese hamster ovary K1 (CHO-K1) cells and examined ALK-mediated changes in the concentration of inositol monophosphate (IP1), a degradation product of the second messenger (inositol trisphosphate) in the Gq signaling pathway upon ligand-induced activation ([88]) (Figs. 4 and S5). […] All endogenous ALK peptides could activate ALKR in a dose-dependent manner (Fig. 4, A–C). […]
Where no end group is shown, it is not given here.
READOUT_NAME: EC50

Here's what some known entries look like.
>>> df
               substance  readout_name  experimental_result
0  PAAHSWS-NH2 [ALK1_A3]          EC50              > 10 µM
1   PAFHSWS-OH [ALK1-OH]          EC50              > 10 µM

Now, please, on to the next substance.
Problem: What value of measured EC50 is listed for PAFHSAS-NH2 [ALK1_A6] ?
Solution: > 10 µM
